# targetDesc: CDK9/CyclinK kinase (Homo sapiens, UniProt P50750)
# Sequence (P50750 whole entry): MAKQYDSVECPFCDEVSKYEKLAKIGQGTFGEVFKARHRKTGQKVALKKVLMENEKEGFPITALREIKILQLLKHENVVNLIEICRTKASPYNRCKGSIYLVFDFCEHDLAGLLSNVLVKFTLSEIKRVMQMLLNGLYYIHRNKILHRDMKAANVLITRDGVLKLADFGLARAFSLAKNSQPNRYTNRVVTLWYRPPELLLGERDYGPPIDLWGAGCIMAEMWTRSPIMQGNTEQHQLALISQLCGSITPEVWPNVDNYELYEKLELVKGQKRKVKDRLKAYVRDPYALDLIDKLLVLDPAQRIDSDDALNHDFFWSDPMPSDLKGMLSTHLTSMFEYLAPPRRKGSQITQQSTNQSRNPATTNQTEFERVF
# Sequence (O75909 whole entry partner): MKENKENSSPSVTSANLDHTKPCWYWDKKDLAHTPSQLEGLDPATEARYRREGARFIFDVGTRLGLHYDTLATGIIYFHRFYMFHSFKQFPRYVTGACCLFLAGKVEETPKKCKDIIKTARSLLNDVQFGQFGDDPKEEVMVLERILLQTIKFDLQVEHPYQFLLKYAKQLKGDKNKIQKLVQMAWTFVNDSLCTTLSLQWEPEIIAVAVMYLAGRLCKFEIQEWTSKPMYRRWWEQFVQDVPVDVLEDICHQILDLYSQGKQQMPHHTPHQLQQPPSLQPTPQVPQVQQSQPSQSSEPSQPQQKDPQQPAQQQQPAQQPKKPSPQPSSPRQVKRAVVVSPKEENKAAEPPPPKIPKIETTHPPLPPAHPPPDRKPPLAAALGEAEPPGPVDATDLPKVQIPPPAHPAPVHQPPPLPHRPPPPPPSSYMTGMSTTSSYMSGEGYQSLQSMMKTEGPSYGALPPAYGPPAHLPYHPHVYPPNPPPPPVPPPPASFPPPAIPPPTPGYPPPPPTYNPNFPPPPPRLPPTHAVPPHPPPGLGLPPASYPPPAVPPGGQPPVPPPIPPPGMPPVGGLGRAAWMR
# protocol: CDK9 protein kinase activity, ADP-Glo CDK9/CyclinK kinase detection kit
# assaySetup: read-out: IC50 of the compound for inhibiting CDK9 protein kinase activity, CDK9/CyclinK kinase
# Protocol: Measurement of CDK9 Protein Kinase Activity The present compound was dissolved in DMSO (Sigma Aldrich), and the initial concentration of the compound was 1000 nM. A two-fold serial dilution was carried out. The specific operation of CDK9 kinase activity determination was carried out according to the ADP-Go™ CDK9/CyclinK kinase detection experimental procedure. […] The inhibitory activity (IC50) of the compound on CDK9 protein kinase was calculated from the dose-inhibition curve of the compound.
measure: IC50

The examples below pair each entry with its known result.
{"columns": ["givenSmiles", "IC50"],
 "data": [
  ["CCN1CCN(c2cccc(Nc3ncc(F)c(-n4cc(C(N)=O)c5cc(OC)ccc54)n3)c2)CC1", "< 1 nM"],
  ["CCN1CCN(c2cccc(Nc3ncc(F)c(-n4cc(C(N)=O)c5cc(F)ccc54)n3)c2)CC1", "< 1 nM"],
  ["Cc1cc(Nc2ncc(F)c(-n3cc(C(N)=O)c4ccccc43)n2)ccc1N(C)CCN(C)C", "10 to 100 nM"],
  ["CCN1CCN(c2cccc(Nc3ncc(F)c(-n4cc(C(N)=O)c5cc(O)ccc54)n3)c2)CC1", "< 1 nM"],
  ["Cc1cc(Nc2ncc(F)c(-n3cc(C(N)=O)c4ccccc43)n2)ccc1N1CCNCC1", "1 to 10 nM"]
]}

// moving on: another record for IC50
Request: Query the reported IC50 for CDK9/CyclinK kinase (Homo sapiens, UniProt P50750); item: NC(=O)c1cn(-c2nc(Nc3cccc(N4CCN(C(=O)N5CCOCC5)CC4)c3)ncc2F)c2ccccc12
Response: < 1 nM

###

# System: A549
# protocol: Growth inhibition of CDK9-positive tumor cell line in vitro
# Type: cell-based, Human
# assaySetup: Homo sapiens, A549, read-out: Inhibitory activity (IC50) on growth in vitro, A549
pIC50: −log10 of the molar value.
measure: pIC50

Request: Query (molecule): CCN1CCN(c2cccc(Nc3ncc(F)c(-n4cc(C(N)=O)c5cc(OC)ccc54)n3)c2)CC1 ; field requested: pIC50
Response: 8.00 to 9.00

###

# Tested on: NCI-H460
# protocol: Growth inhibition of CDK9-positive tumor cell line in vitro
# Assay type: cell-based
# assaySetup: Human lung cancer, read-out: Inhibitory activity (IC50) on growth in vitro, NCI-H460
pIC50: −log10 of the molar value.
Overview of recorded pIC50 for various compounds

Reference set, count: 3
{"columns": ["givenSmiles", "pIC50"],
 "data": [
  ["CCN1CCN(c2cccc(Nc3ncc(F)c(-n4cc(C(N)=O)c5cc(F)ccc54)n3)c2)CC1", "8.00 to 9.00"],
  ["NC(=O)c1cn(-c2nc(Nc3cccc(N4CCN(C5CCOCC5)CC4)c3)ncc2F)c2ccccc12", "8.00 to 9.00"],
  ["CCN1CCN(c2cccc(Nc3ncc(F)c(-n4cc(C(N)=O)c5cc(OC)ccc54)n3)c2)CC1", "8.00 to 9.00"]
]}

Request: Which value of pIC50 has been reported for Cc1cc(Nc2ncc(Cl)c(-n3cc(C(N)=O)c4ccccc43)n2)ccc1N1CCN(C(C)C)CC1 in the records?
Response: 6.00 to 7.00

Request: If you can, please state the reported pIC50 value of CC(C)N1CCN(c2cccc(Nc3ncc(F)c(-n4cc(C(N)=O)c5ccccc54)n3)c2)CC1 .
Response: 8.00 to 9.00

###

# System: A549
# protocol: Growth inhibition of CDK9-positive tumor cell line in vitro
# Assay type: cell-based, Human
# assaySetup: Human lung cancer, A549; read-out: Inhibitory activity (IC50) on growth in vitro, A549
pIC50: −log10 of the molar value.
measure: pIC50

{"columns": ["givenSmiles", "pIC50"],
 "data": [
  ["CCN1CCN(c2cccc(Nc3ncc(F)c(-n4cc(C(N)=O)c5cc(F)ccc54)n3)c2)CC1", "8.00 to 9.00"]
]}

Request: Consider the compound shown here: CC(C)N1CCN(c2cccc(Nc3ncc(F)c(-n4cc(C(N)=O)c5ccccc54)n3)c2)CC1 What is its recorded pIC50?
Response: 8.00 to 9.00

Request: What value of measured pIC50 is listed for NC(=O)c1cn(-c2nc(Nc3cccc(N4CCN(C5CCOCC5)CC4)c3)ncc2F)c2ccccc12 ?
Response: 8.00 to 9.00

###

Parameter pIC50: see the listing below.
# Tested on: PC-9
# protocol: Growth inhibition of CDK9-positive tumor cell line in vitro
# Type: cell-based
# assaySetup: Human lung cancer, read-out: Inhibitory activity (IC50) on growth in vitro, PC-9
pIC50: −log10 of the molar value.

Completed entries (count: 3):
{"columns": ["givenSmiles", "pIC50"],
 "data": [
  ["CCN1CCN(c2cccc(Nc3ncc(F)c(-n4cc(C(N)=O)c5cc(OC)ccc54)n3)c2)CC1", "8.00 to 9.00"],
  ["CC(C)N1CCN(c2cccc(Nc3ncc(F)c(-n4cc(C(N)=O)c5ccccc54)n3)c2)CC1", "8.00 to 9.00"],
  ["NC(=O)c1cn(-c2nc(Nc3cccc(N4CCN(C5CCOCC5)CC4)c3)ncc2F)c2ccccc12", "8.00 to 9.00"]
]}

Request: Any idea what pIC50 was measured for Cc1cc(Nc2ncc(Cl)c(-n3cc(C(N)=O)c4ccccc43)n2)ccc1N1CCN(C(C)C)CC1 ?
Response: 6.00 to 7.00

Request: Quick check: pIC50 of CCN1CCN(c2cccc(Nc3ncc(F)c(-n4cc(C(N)=O)c5cc(F)ccc54)n3)c2)CC1 ?
Response: 8.00 to 9.00

###

# System: 8305C
# protocol: Growth inhibition of CDK9-positive tumor cell line in vitro
# Assay type: cell-based
# assaySetup: Human thyroid cancer, read-out: Inhibitory activity (IC50) on growth in vitro, 8305C
# Description: Measurement of the Inhibitory Activity of the Present Compound on the Growth of Various Types of CDK9-Positive Tumor Cell Lines In Vitro The inventors selected representative CDK9-positive tumor cell lines for further determination of the compound activity. All cell lines used came from ATCC, JCRB, DSMZ and Chinese Academy of Sciences Cell Bank (ZK). Cell culture condition and method were based on the requirements of each cell line. No more than 3 passages were carried out in each culture in vitro. […]
measure: IC50

Known IC50 results, listed for orientation:
{"columns": ["givenSmiles", "measure", "result"],
 "data": [
  ["CCN1CCN(c2cccc(Nc3ncc(F)c(-n4cc(C(N)=O)c5cc(F)ccc54)n3)c2)CC1", "IC50", "1 to 10 nM"],
  ["Cc1cc(Nc2ncc(Cl)c(-n3cc(C(N)=O)c4ccccc43)n2)ccc1N1CCN(C(C)C)CC1", "IC50", "10 to 100 nM"],
  ["CCN1CCN(c2cccc(Nc3ncc(F)c(-n4cc(C(N)=O)c5cc(OC)ccc54)n3)c2)CC1", "IC50", "1 to 10 nM"]
]}

Request: I'd like to know its IC50. The compound in question is NC(=O)c1cn(-c2nc(Nc3cccc(N4CCN(C5CCOCC5)CC4)c3)ncc2F)c2ccccc12
Response: < 1 nM

Request: Which IC50 value belongs to CC(C)N1CCN(c2cccc(Nc3ncc(F)c(-n4cc(C(N)=O)c5ccccc54)n3)c2)CC1 ?
Response: < 1 nM

###

# reported pIC50; entries follow
# Tested on: MOLM13 cells
# protocol: Growth inhibition of CDK9-positive cell line MOLM13 in vitro (CCK8/MTT assay)
# Type: cell-based, human
# assaySetup: Homo sapiens, MOLM-13, read-out: IC50 of the compound for inhibiting cell growth, MOLM13 cells
pIC50: −log10 of the molar value.

{"columns": ["compound", "pIC50"],
 "data": [
  ["CN1CCN(c2cccc(Nc3ncc(Cl)c(-n4cc(C(N)=O)c5ccccc54)n3)c2)CC1 [Compound 118]", "8.00 to 9.00"],
  ["NC(=O)c1cn(-c2ccnc(Nc3ccc(N4CCNCC4)cc3)n2)c2ccccc12 [Compound 27]", "8.00 to 9.00"],
  ["CN1CCN(CCOc2ccc(Nc3nccc(-n4cc(C(N)=O)c5ccccc54)n3)cc2)CC1 [Compound 18]", "7.00 to 8.00"],
  ["Cc1cc(Nc2ncc(F)c(-n3cc(C(N)=O)c4ccccc43)n2)ccc1N1CCNCC1 [Compound 39]", "> 9.00"],
  ["CN1CCN(CCN(C)c2ccc(Nc3nccc(-n4cc(C(N)=O)c5ccccc54)n3)cc2)CC1 [Compound 73]", "8.00 to 9.00"],
  ["CN1CCN(c2cccc(Nc3ncc(F)c(-n4cc(C(N)=O)c5ccccc54)n3)c2)CC1 [Compound 115]", "> 9.00"]
]}

Please find the next compound below.
Request: Field request: pIC50 | item: CCN1CCN(c2cccc(Nc3ncc(F)c(-n4cc(C(N)=O)c5cc(OC)ccc54)n3)c2)CC1 [Compound 152]
Response: > 9.00
